Molecular target: human BChE (Homo sapiens)
Construct: gift of Dr. F. Nachon (Département de Toxicologie, Armed Forces Biomedical Research Institute, France)
Experiment: Reversible inhibition of human BChE, Ellman method with ATCh, Hunter-Downs analysis
Assay type: biochemical
Details: enzyme-substrate (ATCh) dissociation constant derived from the inhibition kinetics with the compound
Answer Criterion not met if BChE Ks is under 0.5 mM, and Criterion met if it is 0.5 mM or more.

[Q] Exam item: decide whether the reported BChE Ks for C=CC1C[N+]2(Cc3cccc([N+](=O)[O-])c3)CCC1CC2C(O)c1ccnc2ccccc12 (stereo not shown) [CD-(mNO2), N-(3-nitrobenzyl) cinchonidinium bromide] is at least 0.5 mM.
[A] Criterion met

###

Target: human BChE (Homo sapiens, UniProt P06276)
Construct: gift of Dr. F. Nachon (Département de Toxicologie, Armed Forces Biomedical Research Institute, France)
Sequence (P06276 29-602): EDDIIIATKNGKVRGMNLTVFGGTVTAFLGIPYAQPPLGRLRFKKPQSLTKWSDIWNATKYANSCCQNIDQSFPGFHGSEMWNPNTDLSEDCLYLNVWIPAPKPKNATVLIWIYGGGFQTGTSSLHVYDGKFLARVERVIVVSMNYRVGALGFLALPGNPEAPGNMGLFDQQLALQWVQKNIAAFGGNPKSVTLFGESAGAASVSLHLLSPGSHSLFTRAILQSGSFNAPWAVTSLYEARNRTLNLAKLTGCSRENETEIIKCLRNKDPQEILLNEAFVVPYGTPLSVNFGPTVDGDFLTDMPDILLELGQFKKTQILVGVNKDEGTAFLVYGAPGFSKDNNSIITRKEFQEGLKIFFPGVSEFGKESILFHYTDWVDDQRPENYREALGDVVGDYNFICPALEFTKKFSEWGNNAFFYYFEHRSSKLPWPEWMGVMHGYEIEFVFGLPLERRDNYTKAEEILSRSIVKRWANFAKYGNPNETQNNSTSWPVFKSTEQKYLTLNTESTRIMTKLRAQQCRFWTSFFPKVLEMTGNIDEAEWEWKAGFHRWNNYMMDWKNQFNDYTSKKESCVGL
Experiment: Reversible inhibition of human BChE, Ellman method with ATCh, Hunter-Downs analysis
Assay type: biochemical
Settings: inhibition selectivity, ratio of Ki constants for AChE and BChE
Parameter Ki(AChE)/ Ki (BChE): see the listing below.
Field format: numeric only.

• C=CC1C[N+]2(Cc3cccc(Cl)c3)CCC1CC2C(O)c1ccnc2ccccc12 (stereo not shown) [CD-(mCl)] = 95
• C=CC1C[N+]2(Cc3cccc(Br)c3)CCC1CC2C(O)c1ccnc2ccccc12 (stereo not shown) [CN-(mBr)] = 17
• C=CC1C[N+]2(Cc3ccc(Br)cc3)CCC1CC2C(O)c1ccnc2ccccc12 (stereo not shown) [CD-(pBr)] = 510

[Q] Tell me Ki(AChE)/ Ki (BChE) of C=CC1C[N+]2(Cc3ccc(C)cc3)CCC1CC2C(O)c1ccnc2ccccc12 (stereo not shown) [CN-(pCH3), N-(4-methylbenzyl) cinchoninium bromide] when tested on human BChE (Homo sapiens, UniProt P06276).
[A] 13

###

Biological target: human AChE (Homo sapiens, UniProt P22303)
Sequence (P22303 32-614): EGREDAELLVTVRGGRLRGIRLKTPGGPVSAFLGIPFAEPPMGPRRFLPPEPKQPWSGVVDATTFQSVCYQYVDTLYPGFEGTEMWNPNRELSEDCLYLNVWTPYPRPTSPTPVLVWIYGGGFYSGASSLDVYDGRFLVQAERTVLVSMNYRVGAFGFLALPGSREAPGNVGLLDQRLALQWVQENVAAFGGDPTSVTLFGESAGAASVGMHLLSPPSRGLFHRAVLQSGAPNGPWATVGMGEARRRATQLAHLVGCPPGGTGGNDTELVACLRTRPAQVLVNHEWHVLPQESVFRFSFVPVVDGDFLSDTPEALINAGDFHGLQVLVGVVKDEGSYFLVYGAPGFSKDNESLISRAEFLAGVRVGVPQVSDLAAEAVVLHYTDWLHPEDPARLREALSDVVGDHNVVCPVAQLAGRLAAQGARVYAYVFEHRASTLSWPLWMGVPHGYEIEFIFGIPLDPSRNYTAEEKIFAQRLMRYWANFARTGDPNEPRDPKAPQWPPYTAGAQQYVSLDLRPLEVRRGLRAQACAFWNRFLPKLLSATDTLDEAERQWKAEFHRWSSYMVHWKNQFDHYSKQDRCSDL
Field: label. Allowed values: Yes (Ki < 40 µM) or No (Ki >= 40 µM).

Sample answers from the record:
* C=C[C@H]1CN2CC[C@H]1C[C@H]2[C@H](O)c1ccnc2ccccc12 [CD, cinchonidine, reference compound] | No
* C=CC1C[N+]2(Cc3ccc([N+](=O)[O-])cc3)CCC1CC2C(O)c1ccnc2ccccc12 (centres unmarked) [CD-(pNO2)] | Yes
* C=CC1C[N+]2(Cc3ccccc3)CCC1CC2C(O)c1ccnc2ccccc12 (centres unmarked) [CD-Bzl] | Yes
* C=CC1C[N+]2(C)CCC1CC2C(O)c1ccnc2ccccc12 (centres unmarked) [CN-Met] | No
* C=C[C@H]1C[N@@]2CC[C@H]1C[C@@H]2[C@@H](O)c1ccnc2ccccc12 [CN, cinchonine, reference compound] | Yes

[Q] Dear colleague, could you confirm whether Ki of C=CC1C[N+]2(Cc3cccc([N+](=O)[O-])c3)CCC1CC2C(O)c1ccnc2ccccc12 (centres unmarked) [CD-(mNO2), N-(3-nitrobenzyl) cinchonidinium bromide] falls below 40 µM? Thanks.
[A] Yes

[Q] Please state whether Ki is below 40 µM for C=CC1C[N+]2(Cc3ccc(Br)cc3)CCC1CC2C(O)c1ccnc2ccccc12 (centres unmarked) [CD-(pBr)]
[A] Yes

[Q] For this compound, is Ki lower than 40 µM? C=CC1C[N+]2(Cc3cccc([N+](=O)[O-])c3)CCC1CC2C(O)c1ccnc2ccccc12 (centres unmarked) [CN-(mNO2)]
[A] Yes

[Q] Quick check: does C=CC1C[N+]2(C)CCC1CC2C(O)c1ccnc2ccccc12 (centres unmarked) [CD-Met] have Ki under 40 µM?
[A] No

[Q] A record lists C=CC1C[N+]2(Cc3ccccc3)CCC1CC2C(O)c1ccnc2ccccc12 (centres unmarked) [CN-Bzl] . Is its Ki below 40 µM?
[A] No

[Q] Could you please tell me whether Ki recorded for C=CC1C[N+]2(Cc3ccc([N+](=O)[O-])cc3)CCC1CC2C(O)c1ccnc2ccccc12 (centres unmarked) [CN-(pNO2)] is less than 40 µM?
[A] No

[Q] Identify whether the compound C=CC1C[N+]2(Cc3cccc(Br)c3)CCC1CC2C(O)c1ccnc2ccccc12 (centres unmarked) [CD-(mBr), N-(3-bromobenzyl) cinchonidinium bromide] records Ki below 40 µM.
[A] Yes

###

Overview of reported AChE Ks across a group of compounds:
Target: human AChE (Homo sapiens, UniProt P22303)
Construct: gift of Dr. F. Nachon (Département de Toxicologie, Armed Forces Biomedical Research Institute, France)
Assay: Reversible inhibition of human AChE, Ellman method with ATCh, Hunter-Downs analysis
Format: biochemical
Conditions: enzyme-substrate (ATCh) dissociation constant derived from the inhibition kinetics with the compound
Report as a plain number; the unit mM is understood.

Past entries and their recorded results:
• C=CC1C[N+]2(Cc3ccc(C)cc3)CCC1CC2C(O)c1ccnc2ccccc12 (centres unmarked) [CN-(pCH3), N-(4-methylbenzyl) cinchoninium bromide] = 2.0
• C=CC1C[N+]2(Cc3cccc(Cl)c3)CCC1CC2C(O)c1ccnc2ccccc12 (centres unmarked) [CD-(mCl)] = 0.74
• C=CC1C[N+]2(Cc3cccc(C)c3)CCC1CC2C(O)c1ccnc2ccccc12 (centres unmarked) [CN-(mCH3), N-(3-methylbenzyl) cinchoninium bromide] = 0.66
• C=CC1C[N+]2(Cc3ccc(Br)cc3)CCC1CC2C(O)c1ccnc2ccccc12 (centres unmarked) [CD-(pBr)] = 2.2

Then this compound:
[Q] Supply recorded AChE Ks for C=CC1C[N+]2(Cc3cccc([N+](=O)[O-])c3)CCC1CC2C(O)c1ccnc2ccccc12 (centres unmarked) [CN-(mNO2)] here.
[A] 0.72

###

Target: human AChE (Homo sapiens, UniProt P22303)
Measured parameter: log10 Ki (log10 of the value in µM)
// do not treat as linear: log10 of Ki, unit µM

* C=CC1C[N+]2(Cc3ccc(Br)cc3)CCC1CC2C(O)c1ccnc2ccccc12 (centres unmarked) [CN-(pBr)] | 1.49
* C=CC1C[N+]2(Cc3cccc(Cl)c3)CCC1CC2C(O)c1ccnc2ccccc12 (centres unmarked) [CN-(mCl)] | 1.75
* C=CC1C[N+]2(Cc3cccc(C)c3)CCC1CC2C(O)c1ccnc2ccccc12 (centres unmarked) [CD-(mCH3)] | 0.48

[Q] Find log10 Ki for C=CC1C[N+]2(Cc3cccc(C)c3)CCC1CC2C(O)c1ccnc2ccccc12 (centres unmarked) [CN-(mCH3), N-(3-methylbenzyl) cinchoninium bromide] on human AChE (Homo sapiens, UniProt P22303) and write it down.
[A] 1.69

[Q] Write down the reported log10 Ki (system: human AChE (Homo sapiens, UniProt P22303)) of C=CC1C[N+]2(Cc3ccc(C)cc3)CCC1CC2C(O)c1ccnc2ccccc12 (centres unmarked) [CD-(pCH3)]
[A] 1.20

[Q] Provide measured log10 Ki on human AChE (Homo sapiens, UniProt P22303) for C=CC1C[N+]2(Cc3cccc(Cl)c3)CCC1CC2C(O)c1ccnc2ccccc12 (centres unmarked) [CD-(mCl)] please.
[A] 1.36

[Q] GET log10 Ki | system: human AChE (Homo sapiens, UniProt P22303) | item: C=CC1C[N+]2(Cc3ccc(C)cc3)CCC1CC2C(O)c1ccnc2ccccc12 (centres unmarked) [CN-(pCH3), N-(4-methylbenzyl) cinchoninium bromide]
[A] 1.62

[Q] State measured log10 Ki of the compound C=CC1C[N+]2(Cc3ccc(Cl)cc3)CCC1CC2C(O)c1ccnc2ccccc12 (centres unmarked) [CD-(pCl)] with human AChE (Homo sapiens, UniProt P22303).
[A] 1.57

###

Target: human AChE (Homo sapiens)
Construct: gift of Dr. F. Nachon (Département de Toxicologie, Armed Forces Biomedical Research Institute, France)
Assay: Reversible inhibition of human AChE, Ellman method with ATCh, Hunter-Downs analysis
Format: biochemical
Conditions: enzyme-substrate (ATCh) dissociation constant derived from the inhibition kinetics with the compound
I would appreciate it if you labelled entries True when AChE Ks is 0.7 mM or higher, otherwise False.

Solved cases below.
• C=CC1C[N+]2(Cc3cccc(Br)c3)CCC1CC2C(O)c1ccnc2ccccc12 (stereo not shown) [CD-(mBr), N-(3-bromobenzyl) cinchonidinium bromide] = True
• C=CC1C[N+]2(Cc3cccc(Cl)c3)CCC1CC2C(O)c1ccnc2ccccc12 (stereo not shown) [CN-(mCl)] = False
• C=CC1C[N+]2(Cc3ccc(C)cc3)CCC1CC2C(O)c1ccnc2ccccc12 (stereo not shown) [CD-(pCH3)] = True
• C=CC1C[N+]2(Cc3ccccc3)CCC1CC2C(O)c1ccnc2ccccc12 (stereo not shown) [CD-Bzl] = True
• C=C[C@H]1C[N@@]2CC[C@H]1C[C@@H]2[C@@H](O)c1ccnc2ccccc12 [CN, cinchonine, reference compound] = False
• C=CC1C[N+]2(Cc3cccc([N+](=O)[O-])c3)CCC1CC2C(O)c1ccnc2ccccc12 (stereo not shown) [CD-(mNO2), N-(3-nitrobenzyl) cinchonidinium bromide] = True

Here is another compound to look at.
[Q] Is AChE Ks for C=CC1C[N+]2(Cc3cccc(Br)c3)CCC1CC2C(O)c1ccnc2ccccc12 (stereo not shown) [CN-(mBr)] at or above 0.7 mM?
[A] True
